The listing below reports IC50 for compounds tested on COX I (Homo sapiens).
Sequence (P23219 24-599): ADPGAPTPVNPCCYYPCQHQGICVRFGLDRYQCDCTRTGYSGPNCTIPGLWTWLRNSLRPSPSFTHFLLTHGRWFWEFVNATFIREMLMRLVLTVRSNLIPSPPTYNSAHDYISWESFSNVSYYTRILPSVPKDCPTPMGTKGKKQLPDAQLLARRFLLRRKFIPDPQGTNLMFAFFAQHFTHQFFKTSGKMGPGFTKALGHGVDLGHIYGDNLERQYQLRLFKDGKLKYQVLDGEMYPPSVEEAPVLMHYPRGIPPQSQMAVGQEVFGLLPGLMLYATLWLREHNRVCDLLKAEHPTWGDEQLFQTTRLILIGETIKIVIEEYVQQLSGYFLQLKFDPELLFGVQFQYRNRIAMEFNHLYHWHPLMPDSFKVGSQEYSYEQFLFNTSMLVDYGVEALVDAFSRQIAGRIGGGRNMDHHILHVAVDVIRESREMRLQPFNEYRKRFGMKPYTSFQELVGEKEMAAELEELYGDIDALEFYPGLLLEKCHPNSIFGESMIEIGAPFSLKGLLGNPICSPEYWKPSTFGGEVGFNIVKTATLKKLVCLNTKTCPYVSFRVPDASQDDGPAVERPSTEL

Illustrative cases are given below, each with its answer.
[[record]]
compound = "CS(=O)(=O)c1ccc2c(Sc3ccccc3Cl)c(C#N)sc2c1 [Cpd 17]"
test_system = "COX I (Homo sapiens)"
endpoint_name = "IC50"
observed_value = "> 120 µM"

[[record]]
compound = "CS(=O)(=O)c1ccc2c(Sc3ccc(F)cc3)c(C#N)sc2c1 [Cpd 26]"
test_system = "COX I (Homo sapiens)"
endpoint_name = "IC50"
observed_value = "> 120 µM"


Here's the next entry for you.
Query: Given the entry CS(=O)(=O)c1ccc2c(Sc3ccc(Cl)cc3Cl)c(C#N)sc2c1 [Cpd 19] , what IC50 was observed with COX I (Homo sapiens)?
Response: > 120 µM

###

Target: COX II (Homo sapiens, UniProt P35354)
Sequence (P35354 18-604): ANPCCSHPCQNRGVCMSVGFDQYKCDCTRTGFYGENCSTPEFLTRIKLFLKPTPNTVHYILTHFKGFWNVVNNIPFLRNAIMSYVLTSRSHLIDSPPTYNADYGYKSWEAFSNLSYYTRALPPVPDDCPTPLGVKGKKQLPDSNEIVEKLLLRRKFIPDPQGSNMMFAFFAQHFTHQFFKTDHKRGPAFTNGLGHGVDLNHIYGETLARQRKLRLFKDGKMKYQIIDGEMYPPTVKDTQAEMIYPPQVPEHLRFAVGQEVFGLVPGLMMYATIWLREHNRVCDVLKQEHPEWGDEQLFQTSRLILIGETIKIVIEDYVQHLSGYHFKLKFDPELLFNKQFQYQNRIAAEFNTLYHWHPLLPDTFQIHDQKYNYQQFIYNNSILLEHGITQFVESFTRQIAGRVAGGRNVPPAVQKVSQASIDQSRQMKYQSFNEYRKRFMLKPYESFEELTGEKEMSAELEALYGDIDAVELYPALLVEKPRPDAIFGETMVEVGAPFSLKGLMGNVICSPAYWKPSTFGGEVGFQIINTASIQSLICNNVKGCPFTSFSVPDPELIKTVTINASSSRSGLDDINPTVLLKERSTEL
pIC50: −log10 of the molar value.
Each entry below carries its reported pIC50.

[[record]]
structure_smiles = "CS(=O)(=O)c1ccc2c(Sc3ccccc3F)c(C#N)sc2c1"
test_system = "COX II (Homo sapiens, UniProt P35354)"
endpoint_name = "pIC50"
observed_value = "> 5.92"


Next compound, please.
Query: Could you share which pIC50 value was measured for `CS(=O)(=O)c1ccc2c(Sc3ccc(F)cc3)c(C#N)sc2c1` ?
Response: > 5.82
